Measured On: kappa-opioid receptor (KOR) (Cavia porcellus)
Construct: Guinea pig cortices and cerebella were homogenized using 50 mM Tris, pH 7.4; from tissue; host or cells: guinea pig cortex and cerebellum membranes
Experimental Protocol: KOR radioligand competition binding assay ([3H]U69,593)
Design: species or system guinea pig
Experimental Parameters: Kappa screening results, mean of Exp 1 and Exp 2; unit inferred; read-out: MEAN (Ki)
Protocol: KOR binding assay: Guinea pig cortices and cerebella were homogenized using 50 mM Tris, pH 7.4, 10 mM MgCl2-6H2O, […] centrifuged and incubated as above. Each assay tube contained 2 nM [^3H]U69,593. Assay tubes were incubated for 2 h at 25 °C. Unlabeled U50,488 was used as a competitor to generate a standard curve and determine nonspecific binding. […]
pKi: −log10 of the molar value.
Parameter threshold = 6. Response is Satisfied when pKi meets or exceeds it, else Not satisfied.

Example entries and their recorded answers appear below.
Cc1cc(O)cc(C)c1C[C@@H](CN1C(=N)NC[C@@H]1Cc1ccccc1)N1C[C@H](CC(C)C)NC1=N    Satisfied
CC(C)C[C@H]1CN([C@@H](Cc2ccc(O)cc2)CN2C(=N)NC[C@@H]2C)C(=N)N1    Not satisfied
CC(C)C[C@H]1CN([C@@H](Cc2ccc(O)cc2)CN2C(=N)NC[C@@H]2Cc2ccc(O)cc2)C(=N)N1    Not satisfied
Cc1cc(O)cc(C)c1C[C@H]1CN([C@@H](Cc2c(C)cc(O)cc2C)CN2C(=N)NC[C@@H]2Cc2ccccc2)C(=N)N1    Satisfied
CC(C)C[C@H]1CN([C@@H](Cc2ccc(O)cc2)CN2C(=N)NC[C@@H]2Cc2ccccc2)C(=N)N1    Not satisfied

Please find the next molecule below.
Ask | Given Cc1cc(O)cc(C)c1C[C@H]1CNC(=N)N1C[C@H](CC(C)C)N1C[C@H](CC(C)C)NC1=N , state whether its pKi is at least 6.
Reply | Satisfied

###

Listed here: items and their measured pKi.
Measured On: kappa-opioid receptor (KOR) (Cavia porcellus, UniProt P41144)
Construct: Guinea pig cortices and cerebella were homogenized using 50 mM Tris, pH 7.4; from tissue; host or cells: guinea pig cortex and cerebellum membranes
Experimental Protocol: KOR radioligand competition binding assay ([3H]U69,593)
Parameters: species or system guinea pig
Experimental Parameters: Kappa screening results, experiment 1; unit inferred; read-out: Ki (Exp 1)
Field pKi (float): negative decimal logarithm of the concentration in molar.

The cases that follow already have their pKi on record.
Cc1cc(O)cc(C)c1C[C@H]1CN([C@@H](CC(C)C)CN2C(=N)NC[C@@H]2Cc2ccccc2)C(=N)N1    5.99
CC(C)C[C@H]1CN([C@@H](CC(C)C)CN2C(=N)NC[C@@H]2Cc2ccccc2)C(=N)N1    4.86
Cc1cc(O)cc(C)c1C[C@@H](CN1C(=N)NC[C@@H]1Cc1ccc(O)cc1)N1C[C@H](CC(C)C)NC1=N    5.59
Cc1cc(O)cc(C)c1C[C@H]1CNC(=N)N1C[C@H](Cc1c(C)cc(O)cc1C)N1C[C@H](Cc2ccccc2)NC1=N    6.06
N=C1NC[C@H](Cc2ccccc2)N1C[C@H](Cc1ccc(O)cc1)N1C[C@H](Cc2ccc(O)cc2)NC1=N    5.27

Ask | Which pKi is reported with kappa-opioid receptor (KOR) (Cavia porcellus, UniProt P41144) for this entry: Cc1cc(O)cc(C)c1C[C@H]1CNC(=N)N1C[C@H](Cc1ccc(O)cc1)N1C[C@H](CC(C)C)NC1=N ?
Reply | 6.43

Ask | Which pKi is reported with kappa-opioid receptor (KOR) (Cavia porcellus, UniProt P41144) for this entry: Cc1cc(O)cc(C)c1C[C@H]1CNC(=N)N1C[C@H](Cc1ccccc1)N1C[C@H](CC(C)C)NC1=N ?
Reply | 6.06

###

Measured On: mu-opioid receptor (MOR) (Rattus norvegicus)
Construct: Rat cortices were homogenized using 50 mM Tris, pH 7.4, and centrifuged at 16,500 rpm for 10 min; from tissue; host or cells: rat cortex membranes
Experimental Protocol: MOR radioligand competition binding assay ([3H]-DAMGO)
Experimental Parameters: Mu screening results, mean of two experiments; read-out: Ki
Listed here: items and their measured Ki.
Write the value in nM as a bare number.

The cases that follow already have their Ki on record.
Cc1cc(O)cc(C)c1C[C@H]1CNC(=N)N1C[C@H](Cc1c(C)cc(O)cc1C)N1C[C@H](Cc2ccc(O)cc2)NC1=N [1968-62]    71
Cc1cc(O)cc(C)c1C[C@H]1CN([C@@H](Cc2ccc(O)cc2)CN2C(=N)NC[C@@H]2C)C(=N)N1 [1968-40]    43
Cc1cc(O)cc(C)c1C[C@H]1CNC(=N)N1C[C@H](Cc1ccc(O)cc1)N1C[C@H](CC(C)C)NC1=N [1968-71]    56

The record that follows has no Ki shown yet.
Ask | Entry N=C1NC[C@H](Cc2ccccc2)N1C[C@H](Cc1ccccc1)N1C[C@H](Cc2ccccc2)NC1=N [1968-65] : reported Ki = ?
Reply | 2600

###

Listed here: items and their measured Ki.
Measured On: delta-opioid receptor (DOR) (Rattus norvegicus)
Construct: Rat cortices were homogenized using 50 mM Tris, pH 7.4, 10 mM MgCl2-6H2O, 200 µM PMSF; from tissue; host or cells: rat cortex membranes
Experimental Protocol: DOR radioligand competition binding assay ([3H]-DPDPE)
Experimental Parameters: Delta screening results, mean of two experiments; read-out: Ki
Protocol: DOR binding assay: Rat cortices were homogenized using 50 mM Tris, pH 7.4, 10 mM MgCl2-6H2O, 200 µM PMSF, centrifuged and incubated as above. Each assay tube contained 2 nM [^3H]-DPDPE. Assay tubes were incubated for 2.5 h at 25 °C. […] All three binding assays were terminated by filtration through GF/B filters, soaked in 5 mg/mL bovine serum albumin, 50 mM Tris, pH 7.4, on a Tomtec Mach II Harvester 96. […] Bound radioactivity was counted on a Wallac Betaplate Liquid Scintillation Counter. […]
The reply should read as a number followed by its unit.

Cc1cc(O)cc(C)c1C[C@H]1CNC(=N)N1C[C@H](CC(C)C)N1C[C@H](Cc2ccccc2)NC1=N [1968-57]    1240 nM
N=C1NC[C@H](Cc2ccc(O)cc2)N1C[C@H](Cc1ccccc1)N1C[C@H](Cc2ccccc2)NC1=N [1968-17]    7100 nM
C[C@H]1CNC(=N)N1C[C@H](Cc1ccc(O)cc1)N1C[C@H](Cc2ccccc2)NC1=N [1968-37]    3610 nM
Cc1cc(O)cc(C)c1C[C@H]1CN([C@@H](Cc2ccccc2)CN2C(=N)NC[C@@H]2Cc2ccc(O)cc2)C(=N)N1 [1968-20]    853 nM
Cc1cc(O)cc(C)c1C[C@@H](CN1C(=N)NC[C@@H]1Cc1ccccc1)N1C[C@H](Cc2ccccc2)NC1=N [1968-67]    830 nM

Ask | Which Ki is reported with delta-opioid receptor (DOR) (Rattus norvegicus) for this entry: Cc1cc(O)cc(C)c1C[C@H]1CN([C@@H](Cc2c(C)cc(O)cc2C)CN2C(=N)NC[C@@H]2Cc2ccc(O)cc2)C(=N)N1 [1968-32] ?
Reply | 488 nM

Ask | Which Ki is reported with delta-opioid receptor (DOR) (Rattus norvegicus) for this entry: N=C1NC[C@H](Cc2ccccc2)N1C[C@H](Cc1ccccc1)N1C[C@H](Cc2ccc(O)cc2)NC1=N [1968-2] ?
Reply | 8100 nM

###

Measured On: delta-opioid receptor (DOR) (Rattus norvegicus)
Construct: Rat cortices were homogenized using 50 mM Tris, pH 7.4, 10 mM MgCl2-6H2O, 200 µM PMSF; from tissue; host or cells: rat cortex membranes
Experimental Protocol: DOR radioligand competition binding assay ([3H]-DPDPE)
Experimental Parameters: Delta screening results, first Ki column; unit not printed (apparently M); read-out: Ki (first column)
Value Kind: Ki (µM)
Write the value in µM as a bare number.

The cases that follow already have their Ki on record.
CC(C)C[C@@H](CN1C(=N)NC[C@@H]1Cc1ccccc1)N1C[C@H](Cc2ccc(O)cc2)NC1=N    2.23
Cc1cc(O)cc(C)c1C[C@H]1CN([C@@H](CC(C)C)CN2C(=N)NC[C@@H]2Cc2c(C)cc(O)cc2C)C(=N)N1    0.978
CC(C)C[C@H]1CN([C@@H](Cc2ccccc2)CN2C(=N)NC[C@@H]2Cc2ccccc2)C(=N)N1    6.37

The record that follows has no Ki shown yet.
Ask | Entry Cc1cc(O)cc(C)c1C[C@H]1CN([C@@H](CC(C)C)CN2C(=N)NC[C@@H]2Cc2ccc(O)cc2)C(=N)N1 : reported Ki = ?
Reply | 4.8

###

Listed here: items and their measured pKi.
Measured On: kappa-opioid receptor (KOR) (Cavia porcellus)
Construct: Guinea pig cortices and cerebella were homogenized using 50 mM Tris, pH 7.4; from tissue; host or cells: guinea pig cortex and cerebellum membranes
Experimental Protocol: KOR radioligand competition binding assay ([3H]U69,593)
Set-up: species or system guinea pig
Experimental Parameters: Kappa screening results, experiment 2; unit inferred; read-out: Ki (Exp 2)
Field pKi (float): negative decimal logarithm of the concentration in molar.

The cases that follow already have their pKi on record.
Cc1cc(O)cc(C)c1C[C@@H](CN1C(=N)NC[C@@H]1Cc1ccc(O)cc1)N1C[C@H](Cc2ccccc2)NC1=N [1968-29]    5.84
Cc1cc(O)cc(C)c1C[C@H]1CN([C@@H](CC(C)C)CN2C(=N)NC[C@@H]2C)C(=N)N1 [1968-44]    5.85
CC(C)C[C@H]1CN([C@@H](Cc2ccc(O)cc2)CN2C(=N)NC[C@@H]2C)C(=N)N1 [1968-39]    5.11

Ask | Entry C[C@H]1CNC(=N)N1C[C@H](Cc1ccc(O)cc1)N1C[C@H](Cc2ccccc2)NC1=N [1968-37] : reported pKi = ?
Reply | 5.41

Ask | Entry CC(C)C[C@H]1CN([C@@H](Cc2ccc(O)cc2)CN2C(=N)NC[C@@H]2Cc2ccccc2)C(=N)N1 [1968-66] : reported pKi = ?
Reply | 5.48
